test system: CP237; assay: qHTS profiling for inhibitors of Plasmodium falciparum proliferation (AID 504749); also: nearly all actives have a fitted effect of over 60% in size; details: P. falciparum in erythrocytes, SYBR Green DNA, 72 h; series mostly up to 28.7 µM
Records with an inconclusive call do not appear. The source made the active and inactive calls. Calls follow the shape of the dose curve; as a rule, active = well fitted inhibition curve with a large enough effect; inconclusive = small, poorly fitted or top-dose-only effect; inactive = flat fitted curve, though single readings scatter.
Outcome (select one): 1 = active, -1 = inactive

Assay outcome for `NCCN` : what was it?
-1

Hello, I am checking results. What call was entered for `Cc1ncc(COP(=O)(O)O)c(CN)c1O` ?
-1

What classification did `N=C(N)c1ccc(/C=C/c2ccc(C(=N)N)cc2O)cc1` end up with in this test?
1

Look up the recorded call for `CNC(=O)c1c(I)c(C(=O)NCC(=O)Nc2c(I)c(C(=O)O)c(I)c(C(=O)NCCO)c2I)c(I)c(N(C)C(C)=O)c1I` in this test.
-1

Name the outcome recorded for `CO[C@H]1C[C@@H]2CC[C@@H](C)[C@@](O)(O2)C(=O)C(=O)N2CCCC[C@H]2C(=O)O[C@H]([C@H](C)C[C@@H]2CC[C@@H](OC(=O)C(C)(CO)CO)[C@H](OC)C2)CC(=O)[C@H](C)/C=C(\C)[C@@H](O)[C@@H](OC)C(=O)[C@H](C)C[C@H](C)/C=C/C=C/C=C/1C` in the assay.
-1

###

tested on: CP286; test: qHTS profiling for inhibitors of Plasmodium falciparum proliferation (AID 504749); also: nearly all actives have a fitted effect of over 60% in size; settings: P. falciparum in erythrocytes, SYBR Green DNA, 72 h; series mostly up to 28.7 µM
Results filed as inconclusive are left out. The source made the active and inactive calls. The call rests on the fitted dose curve; in most records, active means well fitted inhibition curve with a large enough effect; inconclusive means small, poorly fitted or top-dose-only effect; inactive means flat fitted curve, though single readings scatter.
// one of Yes = active, No = inactive, no free text

INSERT INTO measurements (molecule, qualitative_label) VALUES
  ('CSc1nc2cc(Oc3cccc(Cl)c3Cl)c(Cl)cc2[nH]1', 'Yes'),
  ('c1ccc2c(c1)Sc1ccccc1N2CCN1CCCC1', 'Yes'),
  ('OC[C@H]1O[C@@H]2O[C@H]3[C@H](O)[C@@H](O)[C@@H](O[C@H]4[C@H](O)[C@@H](O)[C@@H](O[C@H]5[C@H](O)[C@@H](O)[C@@H](O[C@H]6[C@H](O)[C@@H](O)[C@@H](O[C@H]7[C@H](O)[C@@H](O)[C@@H](O[C@H]1[C@H](O)[C@H]2O)O[C@@H]7CO)O[C@@H]6CO)O[C@@H]5CO)O[C@@H]4CO)O[C@@H]3CO', 'No'),
  ('CN(C)C=Nc1c(I)cc(I)c(CCC(=O)O)c1I', 'No');

# fetch the recorded call for `O=C(OCc1ccccc1)c1ccc(O)cc1` here
No

Please indicate how the test categorized `C[Si](C)(C)O[Si](C)(C)C` .
No

Could you check what this test reported for `COC(=O)CC[C@H](N)C(=O)O` ?
No

// return assay outcome for `O=C(NNCNNC(=O)c1ccncc1)c1ccncc1`
No

Field: outcome | Entry: `CN(Cc1ccccc1)Cc1ccccc1`
No

###

assay: Drug repurposing screens with cells derived from glioblastoma tumor samples (AID 1345199); conditions: GBM patient neurospheres viability, ATP luminescence, 48 h; at 45.9 µM (top of the series); tumour line B; also: % is scaled to controls: 0 for no effect and ±100 for the full control effect; nearly all actives have a fitted effect of over 40% in size
Results filed as inconclusive are left out.
Please provide measured activity, negative = cell killing for the entries that follow.
Numbers only, in %.

These recorded examples may help you get a feel for the data.
INSERT INTO measurements (compound, measured_number) VALUES
  ('CCCCCCCCCCCC(=O)OC[C@@H](O)C1OC[C@H](O)[C@H]1O (some centres not stated)', -6.52),
  ('Cc1nc(NS(=O)(=O)c2ccc(N)cc2)nc(C)c1Br', -13),
  ('Cn1cc(NC(=O)c2cc(NC(=O)c3cc(NC=O)cn3C)cn2C)cc1C(=O)NCCC(=N)N', -15.1),
  ('CCOc1ccc(NC(=S)Nc2ccc(OCC)cc2)cc1', -13.1),
  ('O=C(O)[C@H]1C(=CCO)O[C@H]2CC(=O)N12', -8.67);

Please supply activity, negative = cell killing for each of the following items, keeping them in order.
1. CC(C)=CCC/C(C)=C/CC/C(C)=C/CC/C=C(\C)CC/C=C(\C)CCC=C(C)C
2. CN1c2c(nc(N)[nH]c2=O)NCC1CNc1ccc(C(=O)NC(CCC(=O)O)C(=O)O)cc1 (configuration not stated)

[2.98, -12]

Below are 4 compounds. Give each one its activity, negative = cell killing.
1. O=P(O)(O)OC[C@H](O)CO
2. N=C(N)n1cccn1
3. OC[C@H]1O[C@@H](O[C@H]2[C@H](O)[C@@H](O)[C@H](O)O[C@@H]2CO)[C@H](O)[C@@H](O)[C@@H]1O
4. [O-][N+](=Nc1ccccc1)c1ccccc1

-8.89
-2.75
-9.2
-12.7

Could you report activity, negative = cell killing for every entry in the following list?
1. CC(C)CCC[C@@H](C)[C@H]1CC[C@H]2[C@@H]3CC=C4C[C@@H](O)CC[C@]4(C)[C@H]3CC[C@]12C
2. NC(=O)C1c2ccccc2CCc2ccccc21

[-9.94, 4.21]

###

system: CP315; assay: qHTS profiling for inhibitors of Plasmodium falciparum proliferation (AID 504749); also: nearly all actives have a fitted effect of over 60% in size; settings: P. falciparum in erythrocytes, SYBR Green DNA, 72 h; series mostly up to 28.7 µM
Inconclusive results are not listed. Calls of active or inactive are those of the source. Calls follow the shape of the dose curve; as a rule, active = well fitted inhibition curve with a large enough effect; inconclusive = small, poorly fitted or top-dose-only effect; inactive = flat fitted curve, though single readings scatter.
Pick one and only one: active, inactive

Look up the recorded call for `N=C(N)c1ccc(/C=C/c2ccc(C(=N)N)cc2O)cc1` in this test.
active

Dear colleague, could you share the recorded outcome for CC1C(=O)CC2C3(C)CCC2(C(C)C(=O)O)C(=O)C13 (stereo not given) when you have a moment?
inactive

###

tested on: GB4; assay: qHTS profiling for inhibitors of Plasmodium falciparum proliferation (AID 504749); also: nearly all actives have a fitted effect of over 60% in size; details: P. falciparum in erythrocytes, SYBR Green DNA, 72 h; series mostly up to 28.7 µM
Inconclusive results are not listed. Activity calls are given as the source filed them. The call rests on the fitted dose curve; in most records, active means well fitted inhibition curve with a large enough effect; inconclusive means small, poorly fitted or top-dose-only effect; inactive means flat fitted curve, though single readings scatter.
ASSAY METRIC: outcome

Below, each entry is followed by its recorded outcome result.
INSERT INTO assay_data (compound, assay_metric, result) VALUES
  ('CCCCCCCCCCCCCC(=O)OCC(COP(=O)([O-])OCC[N+](C)(C)C)OC(=O)CCCCCCCCCCCCC (configuration not stated)', 'outcome', 'inactive'),
  ('CC1(C)S[C@@H]2[C@H](NC(=O)C3(N)CCCCC3)C(=O)N2[C@H]1C(=O)O', 'outcome', 'inactive'),
  ('NC(=O)Oc1ccc(Cc2ccccc2)cc1', 'outcome', 'inactive'),
  ('O=C(O)CCC/C=C\C[C@@H]1[C@@H](/C=C/[C@@H](O)COc2cccc(Cl)c2)[C@H](O)C[C@@H]1O', 'outcome', 'inactive'),
  ('COc1ccc(/C=C/C(=O)O)cc1', 'outcome', 'inactive');

Batch: outcome for all items listed.
1. CCOC(C)OCC
2. CC(C)(COP(=O)(O)OP(=O)(O)OC[C@H]1O[C@@H](n2cnc3c(N)ncnc32)[C@H](O)[C@@H]1OP(=O)(O)O)C(O)C(=O)NCCC(=O)NCCS (some centres not stated)

inactive
inactive

###

assay: S16 Schwann cell viability assay (CellTiter-Glo assay) (AID 624031); conditions: S16 rat Schwann cells viability, 24 h; series mostly up to 57.5 µM; also: nearly all actives have a fitted effect of over 70% in size
Records with an inconclusive call do not appear. Calls of active or inactive are those of the source. Calls follow the shape of the dose curve; as a rule, active = well fitted cell-killing curve with a large enough effect; inconclusive = small, poorly fitted or top-dose-only effect, or effect the other way; inactive = flat fitted curve, though single readings scatter.
// one of active, inactive, no free text

Use these answered entries as a reference point.
INSERT INTO measurements (compound, qualitative_label) VALUES
  ('N[C@@H](Cc1cc(I)c(Oc2ccc(O)c(I)c2)c(I)c1)C(=O)O', 'inactive'),
  ('O.O.O.O.O.O.O.O=S(=O)([O-])[O-].[Co+2]', 'inactive'),
  ('CS(=O)(=O)OCC(O)C(O)COS(C)(=O)=O (stereo unspecified)', 'inactive');

What did the test return for CCCCCCCCCCCCCC(=O)OCC(COP(=O)([O-])OCC[N+](C)(C)C)OC(=O)CCCCCCCCCCCCC (stereo unspecified) ?
inactive

Which result was noted for this compound in the test: `O=C(O)C1=C(CSc2nnnn2CS(=O)(=O)O)CS[C@@H]2[C@H](NC(=O)[C@H](O)c3ccccc3)C(=O)N12`
inactive

Per the records of this test, what outcome belongs to `CCOc1ccc(S(=O)(=O)O)c2cccnc12` ?
inactive

GET /call?item= `NC(=S)N=Nc1ccc(NN=C(N)N)cc1` returns the recorded outcome of this test.
active

Can you look up the reported call for `CN1C(=O)OC(C)(C)C1=O` for me?
inactive

Would you mind telling me which call this test gave `CC(C)CCCCCCc1ccc(O)cc1` ?
inactive

###

system: CP185; assay: qHTS profiling for inhibitors of Plasmodium falciparum proliferation (AID 504749); also: nearly all actives have a fitted effect of over 60% in size; details: P. falciparum in erythrocytes, SYBR Green DNA, 72 h; series mostly up to 28.7 µM
Results filed as inconclusive are left out. Calls of active or inactive are those of the source. Calls follow the shape of the dose curve; as a rule, active = well fitted inhibition curve with a large enough effect; inconclusive = small, poorly fitted or top-dose-only effect; inactive = flat fitted curve, though single readings scatter.
Mark one answer only. Choices: label 1 (active), label 0 (inactive)

INSERT INTO measurements (molecule, qualitative_label) VALUES
  ('C[Si](C)(C)O[Si](C)(C)C', 'label 0');

Record request — test call for `Oc1cc(O)cc(O)c1`
label 0

Identify the outcome logged in this assay for the molecule shown: `Cc1ccc(S(=O)(=O)O)cc1C`
label 0

Lab log entry: CCC(Cc1c(I)cc(I)c(O)c1I)C(=O)O (configuration not stated) — outcome as called in the assay?
label 0

Which outcome did this test record for the molecule `COc1ccc(C(=O)CCC(=O)O)c2ccccc12` ?
label 0

Assay result, entry `COc1ccc(-c2noc(CC(=O)O)c2-c2ccc(OC)cc2)cc1` — outcome?
label 0

Check the results log: what was the call for C=CC(C)(O)CC/C=C(\C)CCC=C(C)C (configuration not stated) ?
label 0

Kindly provide the recorded test outcome for the following molecule: `O=C(O)CCC/C=C\C[C@@H]1[C@@H](/C=C/[C@@H](O)COc2cccc(C(F)(F)F)c2)[C@H](O)C[C@@H]1O`
label 0

Called result for `OC[C@H]1O[C@@](CO)(O[C@H]2O[C@H](CO)[C@@H](O)[C@H](O)[C@H]2O)[C@@H](O)[C@@H]1O`
label 0

Recorded test call requested for COC(=O)C(CN)c1c[nH]c2ccc(OC)cc12 (configuration not stated)
label 0

Recorded test outcome, item `CCCOC(=O)c1ccccc1O`
label 0

Returns: the outcome recorded for `NC(=S)N=Nc1ccc(NN=C(N)N)cc1` in this assay.
label 1

What classification did `CCc1ccc(S(=O)(=O)O)cc1` end up with in this test?
label 0

Each molecule tested received a call. Report the one for CCCCCCCCCCCC(=O)OCC(O)CO (configuration not stated) .
label 0

Lab log entry: `CC(C)(C)CC(C)(C)c1cc(Cc2cc(C(C)(C)CC(C)(C)C)cc(-n3nc4ccccc4n3)c2O)c(O)c(-n2nc3ccccc3n2)c1` — outcome as called in the assay?
label 0

Entry CC1CCCCN1CCCOC(=O)c1ccccc1 (configuration not stated) : call = ?
label 0
